# SYSTEM_TESTED: human JAK1 (a.a. 837-1142) (Homo sapiens, UniProt P23458)
# Construct: human JAK1 (a.a. 837-1142); His tag (N); made in house; host or cells: insect cells (baculovirus)
# Sequence (P23458 849-1154): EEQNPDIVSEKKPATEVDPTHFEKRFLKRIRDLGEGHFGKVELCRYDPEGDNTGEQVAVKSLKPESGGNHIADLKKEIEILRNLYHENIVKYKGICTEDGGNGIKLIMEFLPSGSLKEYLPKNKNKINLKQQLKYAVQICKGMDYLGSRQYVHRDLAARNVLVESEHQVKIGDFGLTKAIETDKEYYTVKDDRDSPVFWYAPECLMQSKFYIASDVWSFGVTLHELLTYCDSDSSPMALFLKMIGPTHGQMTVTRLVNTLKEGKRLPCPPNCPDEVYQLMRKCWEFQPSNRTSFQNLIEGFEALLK
# ASSAY_DETAILS: In vitro JAK kinase assay (HTRF, phosphorylation of a biotinylated peptide), JAK1
# Format: biochemical
# CONDITION_DETAILS: Table B1; read-out: JAK1 IC50
Counter-ions that a name gives are not always drawn.
VALUE_KIND: IC50 (nM)

Below, 8 molecules whose answers are already recorded.
### Prompt Give the measured IC50 of COc1cccc(NC(=O)Nc2ccc3cc2CCc2cccc(c2)Nc2ncc(Cl)c(n2)N3)c1 [Example B100, trifluoroacetate] .
### Response 0.92

### Prompt Give the measured IC50 of CC(C)(C)c1ccccc1NC(=O)Nc1ccc2cc1CCc1cccc(c1)Nc1ncc(Cl)c(n1)N2 [Example B110, trifluoroacetate] .
### Response 4.3

### Prompt // lookup IC50 for O=C(Nc1ccc2cc1CCc1cncc(c1)Nc1ncc(Cl)c(n1)N2)N1CCN(c2ccccc2Cl)CC1 [Example B305, bis(trifluoroacetate)]
### Response 15

### Prompt Query: IC50; subject: CN(C(=O)Nc1ccc2cc1CCc1cncc(c1)Nc1ncc(Cl)c(n1)N2)[C@H]1CCNC1 [Example B288, tris(trifluoroacetate)]
### Response 42

### Prompt Query: IC50; subject: O=C(NCc1ccco1)Nc1ccc2cc1CCc1cncc(c1)Nc1ncc(Cl)c(n1)N2 [Example B134, bis(trifluoroacetate)]
### Response 0.75

### Prompt Quick one: IC50 for Cc1cc(C(=O)Nc2ccc3cc2CCc2cccc(c2)Nc2ncc(Cl)c(n2)N3)no1 [Example B68, trifluoroacetate] ?
### Response 1.4

### Prompt Would you mind telling me what IC50 value was observed for O=C(Nc1ccc2cc1CCc1cccc(c1)Nc1ncc(Cl)c(n1)N2)c1ccccn1 [Example B37, bis(trifluoroacetate)] ?
### Response 7.6

### Prompt Reported IC50, molecule O=C(Nc1ccc2cc1CCc1cccc(c1)Nc1ncc(Cl)c(n1)N2)c1cnn2ccccc12 [Example B80, bis(trifluoroacetate)] : ____
### Response 0.56

(A) OCc1ccc2cc1CCc1cccc(c1)Nc1ncc(Cl)c(n1)N2 [Example B23, trifluoroacetate]
(B) CCCS(=O)(=O)Nc1ccc2cc1CCc1cccc(c1)Nc1ncc(Cl)c(n1)N2 [Example B142, trifluoroacetate]
(C) Cc1occc1NC(=O)Nc1ccc2cc1CCc1cccc(c1)Nc1ncc(Cl)c(n1)N2 [Example B118, trifluoroacetate]
### Prompt Ordering: ascending IC50. Form entry: labels listed in requested order.
### Response A, B, C
(A: 0.2 nM, B: 0.85 nM, C: 1.3 nM)

* * *

# SYSTEM_TESTED: human JAK3 (a.a. 781-1124) (Homo sapiens, UniProt P52333)
# Construct: JAK3 (a.a. 781-1124); His tag (N); made in house; host or cells: insect cells (baculovirus)
# Sequence (P52333 781-1124): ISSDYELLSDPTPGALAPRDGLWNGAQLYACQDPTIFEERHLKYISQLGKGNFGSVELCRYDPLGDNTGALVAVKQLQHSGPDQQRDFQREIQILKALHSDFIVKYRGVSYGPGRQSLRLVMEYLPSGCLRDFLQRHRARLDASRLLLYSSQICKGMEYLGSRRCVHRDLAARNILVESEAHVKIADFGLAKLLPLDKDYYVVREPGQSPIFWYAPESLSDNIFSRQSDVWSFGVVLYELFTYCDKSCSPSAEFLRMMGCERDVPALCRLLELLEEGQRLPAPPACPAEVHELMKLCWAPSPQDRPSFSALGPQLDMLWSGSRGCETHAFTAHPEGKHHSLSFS
# ASSAY_DETAILS: In vitro JAK kinase assay (HTRF, phosphorylation of a biotinylated peptide), JAK3
# Assay type: biochemical
# CONDITION_DETAILS: Table B1
Structures can show the parent of a compound that is named as a salt.
VALUE_KIND: IC50 (nM)

### Prompt Can you share its IC50? I mean this compound: Clc1cnc2nc1Nc1ccc(CN3CCNCC3)c(c1)CCc1cccc(c1)N2 [Example B224, tris(trifluoroacetate)]
### Response 41

(A) O=C(Nc1ccc(CCO)cc1)c1cc2cc(c1)Nc1nc(ncc1Cl)Nc1cccc(c1)CC2 [Example B10, trifluoroacetate]
(B) O=C(Nc1ccc2cc1CCc1cccc(c1)Nc1ncc(Cl)c(n1)N2)c1cccnc1Cl [Example B70, bis(trifluoroacetate)]
(C) O=C(Nc1cc2cc(c1)Nc1nc(ncc1Cl)Nc1cccc(c1)CC2)c1ccccn1 [Example B201, trifluoroacetate]
### Prompt Descending sort on IC50 required. Answer format: list of labels, ordered as asked.
### Response C, A, B
(C: 454 nM, A: 51 nM, B: 2.4 nM)

* * *

# SYSTEM_TESTED: human JAK1 (a.a. 837-1142) (Homo sapiens, UniProt P23458)
# Construct: human JAK1 (a.a. 837-1142); His tag (N); made in house; host or cells: insect cells (baculovirus)
# ASSAY_DETAILS: In vitro JAK kinase assay (HTRF, phosphorylation of a biotinylated peptide), JAK1
# Format: biochemical
# CONDITION_DETAILS: method AA1 (90 μM ATP) or AA2 (1000 μM ATP), not stated per value; read-out: JAK1 IC50
Counter-ions that a name gives are not always drawn.
VALUE_KIND: IC50 (nM)

### Prompt Can you look up the measured IC50 of O=C(CN1CCNCC1)Nc1ccc2cc1CCc1cccc(c1)Nc1ncc(Cl)c(n1)N2 [Example A114, tris(trifluoroacetate)] for me?
### Response 25

(I) O=C(CC1CCN(C(=O)c2ccc(F)cc2F)CC1)Nc1ccc2cc1CCc1cccc(c1)Nc1ncc(Cl)c(n1)N2 [Example A204, trifluoroacetate]
(II) Cc1cccc(NC(=O)N2CCC(CC(=O)Nc3ccc4cc3CCc3cncc(c3)Nc3ncc(Cl)c(n3)N4)CC2)c1 [Example A150, bis(trifluoroacetate)]
### Prompt Identify the item whose IC50 is the smaller number: I or II Mark your answer with the label of the selected entry.
### Response II

* * *

# SYSTEM_TESTED: human JAK1 (a.a. 837-1142) (Homo sapiens, UniProt P23458)
# Construct: human JAK1 (a.a. 837-1142); His tag (N); made in house; host or cells: insect cells (baculovirus)
# ASSAY_DETAILS: In vitro JAK kinase assay (HTRF, phosphorylation of a biotinylated peptide), JAK1
# Type: biochemical
# CONDITION_DETAILS: Table B1; read-out: JAK1 IC50
Counter-ions that a name gives are not always drawn.
VALUE_KIND: IC50 (nM)

### Prompt What value of measured IC50 is listed for O=C(Nc1ccc2cc1CCc1cncc(c1)Nc1ncc(Cl)c(n1)N2)N[C@H]1CCN(C(=O)c2ccno2)C1 [Example B271, bis(trifluoroacetate)] ?
### Response 8.7

### Prompt # get_value(readout='IC50', item= CN(Cc1ccc2cc1CCc1cncc(c1)Nc1ncc(Cl)c(n1)N2)CC1CCN(C(=O)c2ccno2)CC1 [Example B345, tris(trifluoroacetate)] )
### Response 17

### Prompt Need IC50 of Cc1ccnc(Nc2ccc3cc2CCc2cccc(c2)Nc2ncc(Cl)c(n2)N3)n1 [Example B276, bis(trifluoroacetate)] , thanks.
### Response 6.5

### Prompt Which value of IC50 has been reported for CN(C)c1ccc(C(=O)Nc2ccc3cc2CCc2cccc(c2)Nc2ncc(Cl)c(n2)N3)cc1 [Example B82, bis(trifluoroacetate)] in the records?
### Response 7.9

### Prompt // lookup IC50 for O=C(NCCNC(=O)c1ccccn1)Nc1ccc2cc1CCc1cccc(c1)Nc1ncc(Cl)c(n1)N2 [Example B190, trifluoroacetate]
### Response 5

### Prompt Fill in the blank: the reported IC50 of O=C(Nc1ccc2cc1CCc1cncc(c1)Nc1ncc(Cl)c(n1)N2)N1CCN(S(=O)(=O)c2ccccc2)CC1 [Example B319, bis(trifluoroacetate)] is ____.
### Response 42

### Prompt Sample Brc1cnc2nc1Nc1cccc(c1)CCc1cccc(c1)N2 [Example B3, trifluoroacetate] — what was its IC50?
### Response 9.2

### Prompt Record request: IC50 value, item NS(=O)(=O)Nc1ccc2cc1CCc1cccc(c1)Nc1ncc(Cl)c(n1)N2 [Example B184, trifluoroacetate]
### Response 0.1

### Prompt Given the molecule Cc1cc(C(=O)N2CCC(NC(=O)Nc3ccc4cc3CCc3cccc(c3)Nc3ncc(Cl)c(n3)N4)CC2)no1 [Example B263, trifluoroacetate] , what is its reported IC50?
### Response 6.7

(I) O=C(Nc1ccc(Cl)cc1)c1cc2cc(c1)Nc1nc(ncc1Cl)Nc1cccc(c1)CC2 [Example B15, trifluoroacetate]
(II) Cn1ccc(C(=O)N2CC[C@H](NC(=O)Nc3ccc4cc3CCc3cccc(c3)Nc3ncc(Cl)c(n3)N4)C2)n1 [Example B232, bis(trifluoroacetate)]
(III) N#Cc1ccc(C(=O)Nc2ccc3cc2CCc2cccc(c2)Nc2ncc(Cl)c(n2)N3)cc1 [Example B64, trifluoroacetate]
(IV) O=C(Nc1ccc2cc1CCc1cccc(c1)Nc1ncc(Cl)c(n1)N2)c1ccc(Cl)cc1 [Example B43, hydrochloride]
### Prompt Order field: IC50 | Direction: descending (largest first) Your reply should list the labels following the order given in the request.
### Response I, II, III, IV
(I: 160 nM, II: 4 nM, III: 1.2 nM, IV: 0.79 nM)

* * *

# SYSTEM_TESTED: human JAK2 (a.a. 828-1132) (Homo sapiens)
# Construct: JAK2 (a.a. 828-1132); His tag (N); made in house; host or cells: insect cells (baculovirus)
# Sequence (O60674 828-1132): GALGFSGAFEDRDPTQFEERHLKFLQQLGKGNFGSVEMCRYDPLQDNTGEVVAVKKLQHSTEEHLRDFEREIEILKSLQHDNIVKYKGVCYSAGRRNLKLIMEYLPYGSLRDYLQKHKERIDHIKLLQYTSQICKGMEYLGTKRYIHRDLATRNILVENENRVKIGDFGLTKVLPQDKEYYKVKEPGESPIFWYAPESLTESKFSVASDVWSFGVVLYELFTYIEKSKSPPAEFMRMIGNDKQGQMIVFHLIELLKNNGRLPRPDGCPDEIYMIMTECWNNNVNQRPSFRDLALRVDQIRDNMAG
# ASSAY_DETAILS: In vitro JAK kinase assay (HTRF, phosphorylation of a biotinylated peptide), JAK2
# Format: biochemical
# CONDITION_DETAILS: Table B1
Counter-ions that a name gives are not always drawn.
VALUE_KIND: IC50 (nM)

Examples with their reported IC50 follow.
### Prompt Report IC50 for COc1cccc(CN2CCN(Cc3cc4cc(c3)Nc3nc(ncc3Cl)Nc3cccc(c3)CC4)CC2)c1 [Example B198, tris(trifluoroacetate)] please.
### Response 10

### Prompt Requested field: IC50. Item: O=C(Nc1ccc2cc1CCc1cccc(c1)Nc1ncc(Cl)c(n1)N2)c1ccc2c(c1)OCO2 [Example B71, trifluoroacetate]
### Response 4.9

### Prompt Item under review: O=C(Nc1ccc2cc1CCc1cccc(c1)Nc1ncc(Cl)c(n1)N2)c1ccccc1 [Example B29, trifluoroacetate] . Reported IC50?
### Response 0.48

### Prompt # lookup: IC50 of Cc1ccc(S(=O)(=O)Nc2ccc3cc2CCc2cccc(c2)Nc2ncc(Cl)c(n2)N3)cc1 [Example B150, trifluoroacetate]
### Response 0.15

### Prompt Find the recorded IC50 belonging to O=C(Nc1ccccc1Cl)c1cc2cc(c1)Nc1nc(ncc1Cl)Nc1cccc(c1)CC2 [Example B14, trifluoroacetate] and report it.
### Response 119

(I) CCc1ccc(NC(=O)Nc2ccc3cc2CCc2cccc(c2)Nc2ncc(Cl)c(n2)N3)cc1 [Example B98, trifluoroacetate]
(II) Cc1cc(C(=O)N2CC[C@H](NC(=O)Nc3ccc4cc3CCc3cncc(c3)Nc3ncc(Cl)c(n3)N4)C2)no1 [Example B265, bis(trifluoroacetate)]
(III) Clc1ccc(CN2CCN(Cc3cc4cc(c3)Nc3nc(ncc3Cl)Nc3cccc(c3)CC4)CC2)cc1 [Example B199, tris(trifluoroacetate)]
(IV) O=C(Nc1ccccc1CCl)Nc1ccc2cc1CCc1cccc(c1)Nc1ncc(Cl)c(n1)N2 [Example B108, trifluoroacetate]
### Prompt Order by IC50, ascending. Give the order by naming the labels one after another as requested.
### Response III, IV, I, II
(III: 2.7 nM, IV: 4.6 nM, I: 26 nM, II: 141 nM)

(a) O=C(Nc1ccc2cc1CCc1cccc(c1)Nc1ncc(Cl)c(n1)N2)c1cnn2ccccc12 [Example B80, bis(trifluoroacetate)]
(b) NS(=O)(=O)Nc1ccc2cc1CCc1cccc(c1)Nc1ncc(Cl)c(n1)N2 [Example B184, trifluoroacetate]
(c) O=C(NCCN1CCCCC1)Nc1ccc2cc1CCc1cccc(c1)Nc1ncc(Cl)c(n1)N2 [Example B258, bis(trifluoroacetate)]
(d) O=S(=O)(Nc1ccc2cc1CCc1cccc(c1)Nc1ncc(Cl)c(n1)N2)c1cccc(C(F)(F)F)c1 [Example B163, trifluoroacetate]
### Prompt Given 4 molecules, produce a descending ranking by IC50. Dear reader, please state the labels in the requested order.
### Response c, a, d, b
(c: 10 nM, a: 0.53 nM, d: 0.24 nM, b: 0.1 nM)
